Target: T1, PD-1 molecule (refolded, purified and biotinylated PD-1 of Example 2) (UniProt Q15116 33-150, biotinylated with BirA enzyme (site not stated))
T1 construct: also called Programmed Death-1
T1 sequence (Q15116 33-150 limits assumed): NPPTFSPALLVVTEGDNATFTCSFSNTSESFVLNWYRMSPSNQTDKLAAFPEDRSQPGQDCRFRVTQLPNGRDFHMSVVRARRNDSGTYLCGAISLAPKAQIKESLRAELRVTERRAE
Experiment: SPR (BIAcore T200), single-cycle kinetics; biotinylated PD-1 captured via streptavidin, PDL-1 variant in solution
READOUT_LABEL: kon (M⁻¹ s⁻¹)
Give bare numbers, in M⁻¹ s⁻¹.

high affinity PDL-1 molecule L3B3b (ligand) FTVTVPKDLYVVEYGSNMTIECKFPVEKQLDLAALQVFWMMEDKNIVSFVHGEEDLKVQHSSYRQRARLLKDQLSLGNAALQITDVKLQDAGVYVCLIAYKGADYKRITVKVNAPYNKINQRILVVDPVTSEHELTCQAEGYPKAEVIWTSSDHQVLSGKTTTTNSKREEKLFNVTSTLRINTTTNEIFYCTFRRLDPEENHTAELVIPEL: 86000

Turning now to a further record.
Query :: Identify measured kon associated with high affinity PDL-1 molecule L2H3 (ligand) FTVTVPKDLYVVEYGSNMTIECKFPVEKQLDLAALQVHWFMEDKNILSFVHGEEDLKVQHSSYRQRARLLKDQLSLGNAALQITDVKLQDAGVYRCMISYGGADYKRITVKVNAPYNKINQRILVVDPVTSEHELTCQAEGYPKAEVIWTSSDHQVLSGKTTTTNSKREEKLFNVTSTLRINTTTNEIFYCTFRRLDPEENHTAELVIPEL
Result :: 17100
